All figures here come from patent US20220306765A1.

This listing pairs binders with measured binding percentage vs wild-type CLDN18.2.
target: human CLDN18.2-mRFP N45Q (human); assay: FACS, transfected HEK293, 10 µg/ml antibody;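 also: antibody binding read by flow cytometry with a FITC-labelled anti-human IgG secondary, gated on RFP-positive cells, each mutant signal expressed against wild-type CLDN18.2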
Sequence (chain, as listed by the source N45Q N45Q limits assumed): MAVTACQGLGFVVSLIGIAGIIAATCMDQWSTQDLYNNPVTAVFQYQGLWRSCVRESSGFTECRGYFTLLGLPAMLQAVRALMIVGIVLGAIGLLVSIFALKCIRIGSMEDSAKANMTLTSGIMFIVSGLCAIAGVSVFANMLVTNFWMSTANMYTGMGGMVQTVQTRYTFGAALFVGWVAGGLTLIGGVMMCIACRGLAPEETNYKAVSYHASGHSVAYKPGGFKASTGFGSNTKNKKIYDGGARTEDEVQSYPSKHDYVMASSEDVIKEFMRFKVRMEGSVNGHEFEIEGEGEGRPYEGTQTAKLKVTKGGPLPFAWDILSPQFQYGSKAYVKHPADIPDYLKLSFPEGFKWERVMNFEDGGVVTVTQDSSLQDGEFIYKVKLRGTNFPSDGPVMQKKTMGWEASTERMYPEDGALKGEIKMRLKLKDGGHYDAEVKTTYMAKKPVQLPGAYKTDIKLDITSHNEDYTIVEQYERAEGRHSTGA
# unit: % | format: bare number

Use the examples below as a reference point.
Give its binding percentage vs wild-type CLDN18.2 value. Item: 12E9-C (antibody, human IgG1, V domains shown, also called chimeric 12E9) VH: EFQLQQSGPELEKPGASVRISCKTSGYSFTGYNMNWVKQSNGESLEWIGNIDPYYGGTRYNQKFKGKATLTVDKSSSTAYMQLKSLTSEDSAVYYCARSYYGNAFDYWGQGTTLTVSS VL: DIVMTQSPSSLTVTAGEKVTMSCKSSQNLLNNGNQKNYLTWYQQKPGQPPKLLIYWASTRESGVPDRFTGSGSGTDFILTISSVQAEDLAVYYCQNDYSFPFTFGAGTKLELK 50.8

Give its binding percentage vs wild-type CLDN18.2 value. Item: 59A9-C (antibody, human IgG1, V domains shown, also called chimeric 59A9) VH: QITQKESGPGILQPSQTLSLTCSLSGFSLSTYFIGVGWIRQPSGKGLEWLAHIWWNDNKYYNTALKSRLTISKDTSNNQVFLKIASVDTADTATYYCARMGSGAWFTYWGQGTLVTVSA VL: DIVMTQSPSSLTVTAGEKVTMSCKSSQSLLNSGNQKNYLTWYQQKPGQPPKLLIYWASTRESGVPDRFTGSGSGTDFTLTISSVQAEDLAVYYCQNDYYYPLTFGSGTKLEIK 65

Give its binding percentage vs wild-type CLDN18.2 value. Item: 7C12-C (antibody, human IgG1, V domains shown, also called chimeric 7C12) VH: EFQLQQSGPELEKPGASVRISCKTSGYSFTGYNMNWVKQSNGESLEWIGNIDPYYGATRYNQKFKGKATLTVDKSSSTAYMQLKSLTSEDSAVYYCARSYYGNAFDYWGQGTTLTVSS VL: DIVMTQSPSSLTVTAGEKVTMSCKSSQSLLNSGNQKNYLTWYQQKPGQPPKLLIYWASTRESGVPDRFTGSGSGTDFTLTISSVQAEDLAVYYCQNDYSFPFTFGSGTKLEIK 52.1

Give its binding percentage vs wild-type CLDN18.2 value. Item: 18B10-C (antibody, human IgG1, V domains shown, also called chimeric 18B10) VH: EFQLQQSGPELEKPGASVRISCKTSGYSFTGYNMNWVKQSNGESLEWIGNIDPYYGGTSYNQKFKGKATLTVDKSSSTAYMQLKSLTSEDSAVYYCARMYHGNAFDYWGQGTTLTVSS VL: DIVMTQSPSSLTVTAGEKVTMSCKSSQSLLNSGNLKNYLTWYQQKPGQPPKLLIYWASTRKSGVPDRFTGSGSGTDFTLTLSSVQAEDLAVYYCQNDYSYPLTFGAGTKLELK 92

Give its binding percentage vs wild-type CLDN18.2 value. Item: 11F12-C (antibody, human IgG1, V domains shown, also called chimeric 11F12) VH: EFQLQQSGPELEKPGASVRISCKTSGYSFTGYNMNWVKQSNGESLEWIGYIDPYYGGTRYNQKFKGKATLTVDKSSSTAYMQLKSLTSEDSAVYYCARSYYGNAFDYWGQGTTLTVSS VL: DIVMTQSPSSLTVTAGEKVTMSCKSSQSLLNSGNQKNYLTWYQQKPGQPPKLLIYWASTRESGVPDRFTGSGSGTDFTLTISSVQAEDLAVYYCQNDYSYPFTFGSGTKLEIK 57.4

Next binder, please.
Give its binding percentage vs wild-type CLDN18.2 value. Item: 26G6-C (antibody, human IgG1, V domains shown, also called chimeric 26G6) VH: EFQLQQSGPELEKPGASVKISCKTSGYSFTGYNMNWVKQSNGQSLEWIGHIDPYYVTTTYNQKFRGKATLTVDKSSSTAYMQLKSLTSEDSAVYYCARSFYGNAFDYWGQGTTLTVSS VL: DIVMTQSPSSLTVTAGEKVTMSCKSSQSLFNSGNQKNYLTWYQQKPGQPPKLLIYWASTRESGVPDRFTGSGSGTDFTLTISSVQAEDLAVYYCQNDYSFPFTFGSGTKLEIK 88.7
